Recorded values, source patent US9598421B2.

biological target: Human PDE4A (Homo sapiens (Human)); experiment: PDE4A Scintillation Proximity Assay (SPA), inhibition of enzyme activity; type: biochemical; details: human recombinant enzyme, 1 μM cAMP substrate, 30 min at 25° C., geometric mean of 2-9 determinations unless otherwise indicated, read-out: Human PDE4A FL
Sequence (P27815 other isoform, or with tags, fused parts or gaps): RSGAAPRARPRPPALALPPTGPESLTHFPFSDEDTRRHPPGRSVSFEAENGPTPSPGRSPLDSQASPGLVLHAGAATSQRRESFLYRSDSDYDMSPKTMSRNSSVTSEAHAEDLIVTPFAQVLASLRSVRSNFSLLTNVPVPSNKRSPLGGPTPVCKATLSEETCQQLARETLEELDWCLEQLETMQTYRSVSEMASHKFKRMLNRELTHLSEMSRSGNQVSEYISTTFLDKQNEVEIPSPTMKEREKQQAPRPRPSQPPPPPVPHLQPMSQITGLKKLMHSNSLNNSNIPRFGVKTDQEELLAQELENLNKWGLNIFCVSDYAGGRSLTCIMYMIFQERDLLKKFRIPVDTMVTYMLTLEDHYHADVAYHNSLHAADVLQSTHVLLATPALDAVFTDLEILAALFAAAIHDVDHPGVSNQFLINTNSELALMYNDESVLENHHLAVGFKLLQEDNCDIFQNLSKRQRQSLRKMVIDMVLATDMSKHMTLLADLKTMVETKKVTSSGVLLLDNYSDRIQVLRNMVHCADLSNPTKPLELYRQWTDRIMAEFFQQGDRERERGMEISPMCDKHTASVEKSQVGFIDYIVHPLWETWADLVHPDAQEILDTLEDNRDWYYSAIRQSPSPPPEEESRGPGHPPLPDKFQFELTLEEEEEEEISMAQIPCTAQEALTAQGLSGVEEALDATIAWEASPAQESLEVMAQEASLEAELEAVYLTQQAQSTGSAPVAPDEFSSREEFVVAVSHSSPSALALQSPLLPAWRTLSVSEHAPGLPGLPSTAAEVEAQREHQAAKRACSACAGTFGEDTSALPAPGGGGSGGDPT
Please use yes (1) for IC50 under 10 nM and no (0) for everything else, ties included.

[[record]]
molecule = "CCCNC(=O)c1nc2cccnn2c1-c1ccc(Cl)c(F)c1"
category = "yes (1)"

[[record]]
molecule = "O=C(N[C@@H]1C[C@@H]1F)c1nc2cccnn2c1-c1ccc(Cl)cc1F"
category = "no (0)"

[[record]]
molecule = "O=C(c1nc2cccnn2c1-c1ccc2ncoc2c1)N1CCC1"
category = "no (0)"

[[record]]
molecule = "Cc1cc(C#N)c(F)cc1-c1c(C(=O)NC2CC2)nc2cccnn12"
category = "no (0)"

[[record]]
molecule = "CC1CC1NC(=O)c1nc2cccnn2c1-c1ccc(Cl)cc1 (centres unmarked)"
category = "no (0)"

